System: ARE activity induced by over-expression of Nrf2
ASSAY_PROTOCOL: cells
Assay type: cell-based
CONDITION_DESCRIPTION: Homo sapiens, HEK-293T, 24 h, read-out: ARE/Nrf2 IC50
QUANTITY_KIND: IC50

Query :: Quick check: IC50 of COc1cc([C@@H]2c3cc4c(cc3[C@H](O)[C@H]3COC(=O)[C@H]23)OCO4)cc(OC)c1OC [Podophyllotoxin, podophyllotoxin] ?
Result :: > 50 µM

###

System: p62-induced ARE activity
ASSAY_PROTOCOL: cells
Assay type: cell-based
CONDITION_DESCRIPTION: read-out: ARE/p62 IC50
QUANTITY_KIND: pIC50
# log scale: pIC50 equals minus log10 of the concentration in mol/L

Query :: For the compound "Nc1ncnc2c1c(I)cn2[C@@H]1O[C@H](CO)[C@@H](O)[C@H]1O" , what pIC50 is on record?
Result :: 7.24
